test system: rodent lifetime carcinogenesis bioassay, tumor incidence TD50; experiment: carcinogenic potency in animals, long-term in vivo studies, CPDB compilation (AID 1745844); details: mouse; strain BDF1; females; in drinking water; site: liver; lesion: several types; types named in the paper; dosed 104 weeks; study length 105 weeks
readout: TD50

Request: // lookup TD50 for `C1COCCO1`
Result: 65.5 mg/kg/day

###

system: rodent lifetime carcinogenesis bioassay, tumor incidence TD50; assay: carcinogenic potency in animals, long-term in vivo studies, CPDB compilation (AID 1745844); conditions: rat; strain Han:WIST; males; inhaled; site: any site (literature study); lesion: malignant tumor; dosed 78 weeks; study length 156 weeks
Activity calls are given as the source filed them. How the calls were made is not given here.
readout: TD50

Request: What TD50 value was documented for this compound, `ClC=C(Cl)Cl` ?
Result: 351 mg/kg/day (inactive)

###

tested on: rodent lifetime carcinogenesis bioassay, tumor incidence TD50; assay: carcinogenic potency in animals, long-term in vivo studies, CPDB compilation (AID 1745844); settings: rat; strain Colworth (Wistar derived); males; in drinking water; site: liver; lesion: intrahepatic bile duct tumor; dosed 176 weeks; study length 176 weeks
readout: TD50

Request: Report TD50 for `CN(C)N=O` please.
Result: 0.308 mg/kg/day

###

system: rodent lifetime carcinogenesis bioassay, tumor incidence TD50; assay: carcinogenic potency in animals, long-term in vivo studies, CPDB compilation (AID 1745844); conditions: rat; strain Wistar; males; by gavage; site: liver; lesion: one or several types; types not named; dosed 104 weeks; study length 104 weeks
The source made the active and inactive calls. The rule behind the calls is not given here.
readout: TD50

Request: Item ClCC1CO1 (stereo unspecified) has what recorded TD50?
Result: 218 mg/kg/day (inactive)

###

system: rodent lifetime carcinogenesis bioassay, tumor incidence TD50; test: carcinogenic potency in animals, long-term in vivo studies, CPDB compilation (AID 1745844); details: rat; strain Sprague-Dawley Spartan; females; in drinking water; site: mammary gland; lesion: fibroadenoma; dosed 104 weeks; study length 104 weeks
Activity calls are given as the source filed them. How the calls were made is not given here.
readout: TD50

Request: Request body: readout TD50, system rodent lifetime carcinogenesis bioassay, tumor incidence TD50, query `C=C(Cl)Cl` . Return the value.
Result: 679 mg/kg/day (inactive)

###

system: rodent lifetime carcinogenesis bioassay, tumor incidence TD50; assay: carcinogenic potency in animals, long-term in vivo studies, CPDB compilation (AID 1745844); settings: rat; strain Fischer 344; males; inhaled; site: skin; lesion: keratoacanthoma; dosed 103 weeks; study length 104 weeks
readout: TD50

Request: // query TD50 value for entry `CC#N`
Result: 127 mg/kg/day

###

tested on: rodent lifetime carcinogenesis bioassay, tumor incidence TD50; experiment: carcinogenic potency in animals, long-term in vivo studies, CPDB compilation (AID 1745844); conditions: mouse; strain B6C3F1; males; in feed; site: lung; lesion: adenocarcinoma; dosed 96 weeks; study length 104 weeks
Calls of active or inactive are those of the source. The rule behind the calls is not given here.
readout: TD50

Request: Need TD50, item `CCOc1ccc(NC(C)=O)cc1`
Result: 3800 mg/kg/day (inactive)

###

test system: rodent lifetime carcinogenesis bioassay, tumor incidence TD50; assay: carcinogenic potency in animals, long-term in vivo studies, CPDB compilation (AID 1745844); details: rat; strain Sherman; both sexes; in drinking water; site: liver; lesion: several types; types named in the paper; dosed 104 weeks; study length 104 weeks
readout: TD50

Request: Which value of TD50 has been reported for `C1COCCO1` in the records?
Result: 2120 mg/kg/day

###

test system: rodent lifetime carcinogenesis bioassay, tumor incidence TD50; assay: carcinogenic potency in animals, long-term in vivo studies, CPDB compilation (AID 1745844); conditions: rat; strain Osborne-Mendel; females; in feed; site: adrenal gland; lesion: cortical adenoma; dosed 78 weeks; study length 110 weeks
The source made the active and inactive calls. No rule for the calls is given here.
readout: TD50

Request: What TD50 value was documented for this compound, `CCOC(=O)C(O)(c1ccc(Cl)cc1)c1ccc(Cl)cc1` ?
Result: 490 mg/kg/day (inactive)

###

system: rodent lifetime carcinogenesis bioassay, tumor incidence TD50; assay: carcinogenic potency in animals, long-term in vivo studies, CPDB compilation (AID 1745844); conditions: mouse; strain Swiss; males; in drinking water; site: all sites; lesion: malignant lymphoma; dosed 113 weeks; study length 113 weeks
readout: TD50 (mg/kg/day)
Please state the figure in mg/kg/day; there is no need to write the unit.

Request: Look up TD50 for this molecule: `NN`
Result: 9.52

###

test system: rodent lifetime carcinogenesis bioassay, tumor incidence TD50; assay: carcinogenic potency in animals, long-term in vivo studies, CPDB compilation (AID 1745844); settings: rat; strain MRC-Wistar; males; in drinking water; site: any site (literature study); lesion: one or several types; types not named; dosed 70 weeks; study length 70 weeks
readout: TD50
Please report the result as a number followed by the unit.

Request: Tell me the measured TD50 of `O=NN1CCOC1=O` , please.
Result: 0.335 mg/kg/day

###

test system: rodent lifetime carcinogenesis bioassay, tumor incidence TD50; assay: carcinogenic potency in animals, long-term in vivo studies, CPDB compilation (AID 1745844); conditions: mouse; strain B6C3F1; males; in feed; site: kidney + lung + stomach; lesion: tubular-cell adenoma + tubular-cell adenocarcinoma + alveolar/bronchiolar adenoma + alveolar/bronchiolar carcinoma + squamous-ce; dosed 103 weeks; study length 104 weeks
readout: TD50 (mg/kg/day)
Just the number in mg/kg/day, nothing appended.

Request: Record O=P(OCC(Br)CBr)(OCC(Br)CBr)OCC(Br)CBr (stereo unspecified) : what is its TD50 with rodent lifetime carcinogenesis bioassay, tumor incidence TD50?
Result: 103

###

system: rodent lifetime carcinogenesis bioassay, tumor incidence TD50; experiment: carcinogenic potency in animals, long-term in vivo studies, CPDB compilation (AID 1745844); details: mouse; strain B6C3F1; males; in feed; site: liver; lesion: hepatocellular adenoma + hepatocellular carcinoma + neoplastic nodule; dosed 78 weeks; study length 94 weeks
readout: TD50 (mg/kg/day)
Kindly provide the numeric value in mg/kg/day only, without the unit symbol.

Request: Give the measured TD50 of `Cc1cc(N)ccc1N` .
Result: 288

Request: Which TD50 value belongs to `Nc1ccc(Cl)c(N)c1` ?
Result: 7050

###

system: rodent lifetime carcinogenesis bioassay, tumor incidence TD50; assay: carcinogenic potency in animals, long-term in vivo studies, CPDB compilation (AID 1745844); conditions: mouse; strain BALB/c; females; i.p.; site: mammary gland; lesion: several types; types named in the paper; dosed 50 weeks; study length 72 weeks
readout: TD50 (mg/kg/day)
The answer is to be given in mg/kg/day; state only the numeric part.

Request: Test system rodent lifetime carcinogenesis bioassay, tumor incidence TD50; read-out TD50; what value for `Nc1ncn([C@@H]2O[C@H](CO)[C@@H](O)[C@H]2O)c(=O)n1` ?
Result: 0.432

###

tested on: rodent lifetime carcinogenesis bioassay, tumor incidence TD50; assay: carcinogenic potency in animals, long-term in vivo studies, CPDB compilation (AID 1745844); details: mouse; strain Monohybrid cross offspring of B6CF1 (C57BL/6 x BALB/c); females; in feed; site: cervix; lesion: squamous-cell carcinoma; dosed 144 weeks; study length 153 weeks
readout: TD50

Request: GET /values?readout=TD50&system=rodent lifetime carcinogenesis bioassay, tumor incidence TD50&item= `CC/C(=C(/CC)c1ccc(O)cc1)c1ccc(O)cc1`
Result: 1.03 mg/kg/day

###

test system: rodent lifetime carcinogenesis bioassay, tumor incidence TD50; assay: carcinogenic potency in animals, long-term in vivo studies, CPDB compilation (AID 1745844); details: rat; strain Sprague-Dawley; males; by gavage; site: any site (literature study); lesion: malignant tumor; dosed 167 weeks; study length 167 weeks
readout: TD50 (mg/kg/day)
Field: numeric (mg/kg/day). Do not append units.

Request: # input compound: `CC/C(=C(\c1ccccc1)c1ccc(OCCN(C)C)cc1)c1ccccc1` ; wanted: its TD50
Result: 187

###

test system: rodent lifetime carcinogenesis bioassay, tumor incidence TD50; experiment: carcinogenic potency in animals, long-term in vivo studies, CPDB compilation (AID 1745844); conditions: rat; strain Fischer 344; males; in drinking water; site: thyroid follicle; lesion: several types; types named in the paper; dosed 107 weeks; study length 107 weeks
readout: TD50

Request: Returns the measured TD50 for the input compound. Input: `C=CC(N)=O`
Result: 7.35 mg/kg/day

###

tested on: rodent lifetime carcinogenesis bioassay, tumor incidence TD50; assay: carcinogenic potency in animals, long-term in vivo studies, CPDB compilation (AID 1745844); settings: rat; strain F344/DuCrj; males; in drinking water; site: peritoneum; lesion: mesothelioma; dosed 52 weeks; study length 104 weeks
readout: TD50
For clarity, give the value followed by its unit.

Request: Which TD50 reading was recorded for the molecule `[O-][Br+2]([O-])O` ?
Result: 19.4 mg/kg/day

###

test system: rodent lifetime carcinogenesis bioassay, tumor incidence TD50; test: carcinogenic potency in animals, long-term in vivo studies, CPDB compilation (AID 1745844); conditions: mouse; strain B6C3F1; males; inhaled; site: liver; lesion: hepatocellular adenoma + hepatocellular carcinoma + neoplastic nodule; dosed 40 weeks; study length 104 weeks
readout: TD50 (mg/kg/day)
Quick note: give the figure in mg/kg/day, leave out the unit.

Request: # query: TD50 of entry `C=CC=C`
Result: 16.8
